B1: TPR t1 (parent)
chain: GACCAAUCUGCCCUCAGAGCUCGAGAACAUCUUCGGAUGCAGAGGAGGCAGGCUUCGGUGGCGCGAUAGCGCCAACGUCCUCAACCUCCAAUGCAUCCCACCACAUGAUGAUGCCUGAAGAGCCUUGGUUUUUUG

variants of: B1; test: polymerase ribozyme fitness, log enrichment relative to wild type (log ratio); higher = more active; in vitro selection for triplet polymerase activity
Measurement Name: polymerase ribozyme fitness (log ratio)
Answer as a number with no unit attached.

Recorded result, C13U C82A C97A , polymerase ribozyme fitness (log ratio): -4.74

Recorded result, A26U G69A U78G U106A , polymerase ribozyme fitness (log ratio): -4.44

Recorded result, G48U C88G G113C A121C , polymerase ribozyme fitness (log ratio): -3.7

Recorded result, C3G C73U A90C , polymerase ribozyme fitness (log ratio): -3.32

Recorded result, U7C C62U , polymerase ribozyme fitness (log ratio): -1.11

Recorded result, A2C U38G C79G A121C , polymerase ribozyme fitness (log ratio): -2.95

Recorded result, A5U C70A , polymerase ribozyme fitness (log ratio): -2.56

Recorded result, U55A C101U A121U , polymerase ribozyme fitness (log ratio): 1.89

Recorded result, G69U C94U U112C , polymerase ribozyme fitness (log ratio): 1.42

Recorded result, C12U A68G , polymerase ribozyme fitness (log ratio): -1.94

Recorded result, A5U A43G G44A G52C G63C C124U G128U , polymerase ribozyme fitness (log ratio): -4.22

Recorded result, C3A C13U C34A G58C G135U , polymerase ribozyme fitness (log ratio): -4.09

Recorded result, C56U U78C U81G C94U , polymerase ribozyme fitness (log ratio): -1.62

Recorded result, C82A C94U , polymerase ribozyme fitness (log ratio): -0.596

Recorded result, A18U A74C A90U A121C U129A , polymerase ribozyme fitness (log ratio): -1.29

Recorded result, C34A G113A , polymerase ribozyme fitness (log ratio): -4.03

Recorded result, A2U G23C G39A A50U G61C A91C G93C A111U , polymerase ribozyme fitness (log ratio): -6

Recorded result, A37C G52U C80A , polymerase ribozyme fitness (log ratio): -4.05

Recorded result, G17U C124A , polymerase ribozyme fitness (log ratio): -1.01

Recorded result, C3A G60A , polymerase ribozyme fitness (log ratio): -1.52

Recorded result, A18U G45U U87C A90G , polymerase ribozyme fitness (log ratio): -2.54

Recorded result, C20A C34A A41C G69U C73U , polymerase ribozyme fitness (log ratio): -5.14

Recorded result, C20G U78C , polymerase ribozyme fitness (log ratio): -3.43

Recorded result, C12G G44A C73G C82U , polymerase ribozyme fitness (log ratio): -0.977

Recorded result, C40U A41C C56A C73U C114A , polymerase ribozyme fitness (log ratio): -3.67

Recorded result, U109A C123U , polymerase ribozyme fitness (log ratio): -3.85

Recorded result, G58C U67C A100U G120C , polymerase ribozyme fitness (log ratio): -6.28

Recorded result, C20A C53A U59A , polymerase ribozyme fitness (log ratio): -2.85

Recorded result, U9G U38G U55C , polymerase ribozyme fitness (log ratio): -0.21

Recorded result, C56A G107C , polymerase ribozyme fitness (log ratio): -5.28

Recorded result, G120A U129G , polymerase ribozyme fitness (log ratio): -0.391

Recorded result, G107U A121U G128C , polymerase ribozyme fitness (log ratio): -4.77

Recorded result, G10C C11A , polymerase ribozyme fitness (log ratio): -1.06

Recorded result, A41U G45A C88A C115A U131A , polymerase ribozyme fitness (log ratio): -3.64

Recorded result, G10A C72G G77C A95G C101G , polymerase ribozyme fitness (log ratio): -3.03

Recorded result, C34G G107A , polymerase ribozyme fitness (log ratio): -7.98

Recorded result, C70U A119G , polymerase ribozyme fitness (log ratio): 0.891

Recorded result, A37U G48U G57U U129C , polymerase ribozyme fitness (log ratio): -1.96

Recorded result, G69C C101A , polymerase ribozyme fitness (log ratio): -2.4

Recorded result, U9A G19C A41U G63C , polymerase ribozyme fitness (log ratio): -3.34
